Where do the numbers come from? From the supplement of paper PMC3545927.

- assayed target: furin, P09958;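 further: purified furin at 1:10 enzyme:substrate in 50 mM HEPES pH 7.5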
- Sequence (P09958 whole entry): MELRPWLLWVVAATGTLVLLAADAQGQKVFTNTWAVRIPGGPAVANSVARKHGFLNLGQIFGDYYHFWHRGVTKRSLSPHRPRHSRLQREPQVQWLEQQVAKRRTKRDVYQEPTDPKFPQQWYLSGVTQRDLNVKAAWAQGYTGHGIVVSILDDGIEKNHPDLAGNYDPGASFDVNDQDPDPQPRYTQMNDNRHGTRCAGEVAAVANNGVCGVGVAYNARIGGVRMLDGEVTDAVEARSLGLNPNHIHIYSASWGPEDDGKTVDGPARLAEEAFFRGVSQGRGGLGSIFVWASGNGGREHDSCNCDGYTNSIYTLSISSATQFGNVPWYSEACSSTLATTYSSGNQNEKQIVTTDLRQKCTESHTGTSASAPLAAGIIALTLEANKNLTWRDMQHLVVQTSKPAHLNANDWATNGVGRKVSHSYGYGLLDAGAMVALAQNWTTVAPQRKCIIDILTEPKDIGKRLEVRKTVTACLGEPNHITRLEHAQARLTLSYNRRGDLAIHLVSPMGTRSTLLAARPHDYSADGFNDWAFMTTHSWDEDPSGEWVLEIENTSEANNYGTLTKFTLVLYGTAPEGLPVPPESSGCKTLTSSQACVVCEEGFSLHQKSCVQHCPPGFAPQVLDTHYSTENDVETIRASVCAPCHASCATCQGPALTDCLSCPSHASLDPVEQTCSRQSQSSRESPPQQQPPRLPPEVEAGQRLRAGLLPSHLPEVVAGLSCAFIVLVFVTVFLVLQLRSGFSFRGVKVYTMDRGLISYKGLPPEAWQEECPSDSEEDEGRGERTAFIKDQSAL
- assay text: furin cleavage Z-score vs untreated control; higher = more cleavage, active = 3.5 or more, inactive = 1 or less, 8 variable residues between constant flanks
- conditions: 15 min
The other results are listed elsewhere or left out. The hit rate among all sequences tested is not known here.
Assign a class; possible classes are T for active, F for inactive

Can you look up the reported call for CARRRRFPFVAGNASASA [FS-1784] for me?
F

***
Hi, sorry to bother you, what did the test record for CAEVVYSTWVAGNASASA [HC137] ?
F

Any idea what this test logged for CASSEANAEDAGNASASA [HC1365] ?
F

For CAMEVCSQHLAGNASASA [HC1710] , which call appears in the assay record?
F

Which outcome was entered for the sequence CARSKRRWVIAGNASASA [FS-2812] in this test?
F

Returns: the outcome recorded for CARRCRASGVAGNASASA [HC1509] in this assay.
F

# lookup: test call for CARRKRDWVIAGNASASA [FS-2778]
T
